Taken from ChEMBL document CHEMBL1145728.

Each entry below carries its recorded pIC50.
- study.system: Peptide deformylase (Escherichia coli)
- Sequence (Q9JN24 whole entry): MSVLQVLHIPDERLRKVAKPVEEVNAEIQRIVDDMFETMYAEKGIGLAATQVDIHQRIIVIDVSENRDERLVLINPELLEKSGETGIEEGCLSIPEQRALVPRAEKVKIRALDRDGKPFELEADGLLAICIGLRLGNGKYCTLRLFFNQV
Worth noting: pIC50 values are minus log10 of concentrations stated in mol/L.

Example entries and their recorded answers appear below.
INSERT INTO results (molecule, value_measured) VALUES
  ('CCCC[C@H](CN(O)C=O)C(=O)N[C@@H](CCC(=O)OCc1ccccc1)C(=O)N(C)C', 7.70),
  ('CCCC[C@H](CN(O)C=O)C(=O)N[C@H](C(=O)N1CCC(Cc2ccccc2)CC1)C(C)(C)C', 7.70),
  ('CCCC[C@H](CN(O)C=O)C(=O)N[C@@H](CC(C)C)C(=O)N(C)C', 7.70);

Query block: Note pIC50 for the molecule shown: CCCC[C@H](CN(O)C=O)C(=O)N[C@H](C(=O)N1CCOCC1)C(C)(C)C
Result block: 7.70

Query block: Determine its reported pIC50: CCCC[C@H](CN(O)C=O)C(=O)N[C@H](C(=O)N1CCN(C)CC1)C(C)(C)C
Result block: 7.30

Query block: In one line, give reported pIC50 of the entry CCCC[C@H](CN(O)C=O)C(=O)N[C@@H](Cc1ccc(Cl)cc1)C(=O)N(C)C .
Result block: 7.30

Query block: Identify measured pIC50 corresponding to CCCC[C@H](CN(O)C=O)C(=O)N[C@H](C(=O)N(C)C)C(C)CC (some centres not stated)
Result block: 7.70
